System: MPP-89 (Mesothelioma);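 further: after 72 h of two-drug dosing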
protocol summary: Bliss excess, mean over the matrix (fraction); higher = more synergy
property name: Bliss excess
Please state the value as a number alone, without comment.

Known results for molecules:
>>> measured_result("NC1(C(=O)N[C@@H](CCO)c2ccc(Cl)cc2)CCN(c2ncnc3[nH]ccc23)CC1 [Capivasertib] + CC(C)n1c(=O)n(C)c2cnc3cc(F)c(-c4ccc(OCCCN5CCCCC5)nc4)cc3c21 [AZD1390] (first compound max 10 µM, 7x7, partner max 0.3 µM)")
-0.0069
>>> measured_result("CN(CCO)CC[C@H](CSc1ccccc1)Nc1ccc(S(=O)(=O)NC(=O)c2ccc(N3CCC([C@@H](O)c4ccccc4-c4ccc(Cl)cc4)CC3)cc2)cc1S(=O)(=O)C(F)(F)F [AZD4320] + C[C@@H]1COCCN1C2=NC(=NC(=C2)C3(CC3)[S@](=N)(=O)C)C4=C5C=CNC5=NC=C4 [AZD6738] (first compound max 1 µM, 7x7, partner max 10 µM)")
-0.0163
>>> measured_result("CN(C)CCCOc1ccc(-c2ccc3ncc4c(c3c2)n(C2CCOCC2)c(=O)n4C)cn1 [AZD0156] + C[C@@H]1COCCN1C2=NC(=NC(=C2)C3(CC3)[S@](=N)(=O)C)C4=C5C=CNC5=NC=C4 [AZD6738] (first compound max 1 µM, 7x7, partner max 10 µM)")
0.0041

Entry CN(CCO)CC[C@H](CSc1ccccc1)Nc1ccc(S(=O)(=O)NC(=O)c2ccc(N3CCC([C@@H](O)c4ccccc4-c4ccc(Cl)cc4)CC3)cc2)cc1S(=O)(=O)C(F)(F)F [AZD4320] + Nc1ccn([C@@H]2O[C@H](CO)[C@@H](O)C2(F)F)c(=O)n1 [Gemcitabine] (first compound max 1 µM, 7x7, partner max 0.3 µM) ; Bliss excess = 0.0268
